Sourced from ChEMBL document CHEMBL1201862

The compounds listed here are annotated with their GI50.
- Tested on: Malme-3M
- protocol.description: NCI tumour cell line growth inhibition, 48 h
Calls of active or inactive are those of the source. No stated cut-off is given here; in the data, active = GI50 up to about 1.1 µM and inactive = higher.
readout.type: GI50

> print(dat)
                                    compound  tested.system  readout.type               result
 1      c1ccc(OCc2nnc3n2N=C(c2ccccc2)CS3)cc1       Malme-3M          GI50  > 100 µM (inactive)
 2        CC12CCC(CC1)C(C)(C)O2 [EUCALYPTOL]       Malme-3M          GI50   54.6 µM (inactive)
 3                      CCCCCCCCCCCCCC(=O)NO       Malme-3M          GI50   32.1 µM (inactive)
 4  CC(C)c1ccc(/C=C2/C=C(c3ccc4ccccc4c3)OC2=O)cc1       Malme-3M          GI50   15.8 µM (inactive)
 5  Cc1cn(C2CC(ON3C(=O)c4ccccc4C3=O)C(CO)O2)c(=O)[nH]c1=O (configuration not stated)       Malme-3M          GI50   > 10 µM (inactive)
 6        COc1cc(/C=C\c2ccc(O)cc2)cc(OC)c1OC       Malme-3M          GI50   4.25 µM (inactive)
 7  COc1ccc(-c2cc(-c3ccccc3)n(C3OCC(OC(C)=O)C(OC(C)=O)C3OC(C)=O)c(=S)c2C#N)cc1 (configuration not stated)       Malme-3M          GI50  > 100 µM (inactive)
 8  Cc1ccnc(Nc2[nH]c(C(=O)c3ccc(Cl)cc3)c(N)c2C(=S)Nc2ccccc2)c1       Malme-3M          GI50   13.8 µM (inactive)
 9  O=P(O)(O)C(NCC(O)CN1CCOCC1)P(=O)(O)O (configuration not stated)       Malme-3M          GI50  > 100 µM (inactive)
10  Cc1ccc(S(=O)(=O)Nn2c(C)cc3ccc(S(=O)(=O)Nc4ccccc4[N+](=O)[O-])cc3c2=O)cc1       Malme-3M          GI50  > 100 µM (inactive)
11  Cc1ccc(OC(=O)N2C/C(=C\c3ccccc3)C(=O)/C(=C/c3ccccc3)C2)cc1       Malme-3M          GI50   > 76 µM (inactive)
12  CCOC(=O)c1cc(C2=CCNC2=O)c(-c2cc(C)no2)[nH]1       Malme-3M          GI50  > 100 µM (inactive)
13            C/C(=C/CNc1ncnc2c1ncn2CCC#N)CO       Malme-3M          GI50  > 100 µM (inactive)
14  C=CC1(C)CC(=O)C2(O)C(C)(O1)C(OC(C)=O)C(O)C1C(C)(C)CCC(O)C12C (configuration not stated)       Malme-3M          GI50  > 150 µM (inactive)
15  COc1cc(/C=C/C(=O)c2cccc3ccccc23)cc(OC)c1OC       Malme-3M          GI50   11.4 µM (inactive)
16  CCOC(=O)NC(Nc1ccc(OC(F)(F)F)cc1)(C(F)(F)F)C(F)(F)F       Malme-3M          GI50  > 100 µM (inactive)
17  C=CCOc1ccc(C2(c3ccc(OCC=C)cc3)C(=O)Nc3ccccc32)cc1       Malme-3M          GI50   > 10 µM (inactive)
18  C1=N/CCNCCNCC/N=C/c2ccccc2OCc2cccc(n2)COc2ccccc2/1       Malme-3M          GI50   61.8 µM (inactive)
19                       CCCCCCCCCCCCNC(C)=O       Malme-3M          GI50   17.7 µM (inactive)
20  O/N=C1/C(=C/c2ccc(Cl)cc2)CCCC1C(NO)c1ccc(Cl)cc1 (configuration not stated)       Malme-3M          GI50   26.7 µM (inactive)
21  Cc1c(C(=O)/C=C/c2ccc(N(C)C)cc2)c(=O)n(-c2ccccc2)n1C       Malme-3M          GI50  > 100 µM (inactive)
22       CCOC(=O)c1cnc2sc3ccc4ccccc4c3n2c1=O       Malme-3M          GI50   63.2 µM (inactive)

----------
- System: A498
- protocol.description: NCI tumour cell line growth inhibition, 48 h
Calls of active or inactive are those of the source. Rule as the data show it: active = GI50 up to about 1.1 µM and inactive = higher.
readout.type: GI50

> print(dat)
                                   compound               result
1     COC(=O)CCCCC/C(=C\C(=O)C(Cl)(Cl)Cl)OC   40.8 µM (inactive)
2  COc1ccc(-c2nc(N)n(C)c2SSc2c(-c3ccc(OC)cc3)nc(N)n2C)cc1   7.64 µM (inactive)
3  C=CCNC1=NC(=O)C(CC(=O)Nc2ccc([N+](=O)[O-])cc2[N+](=O)[O-])S1 (centres undefined)  > 100 µM (inactive)
4  CCC(=O)OC[n+]1ccc2c(C)c3[nH]c4ccccc4c3c(C)c2c1   1.21 µM (inactive)
5  O=c1c(C(c2ccc(C(c3c(O)oc4cc(O)ccc4c3=O)c3c(O)oc4cc(O)ccc4c3=O)cc2)c2c(O)oc3cc(O)ccc3c2=O)c(O)oc2cc(O)ccc12  > 100 µM (inactive)
6         CCN(CC)C(=S)SS(=O)(=O)c1ccc(C)cc1  > 100 µM (inactive)
7       O=C(O)c1ccc(C2=Cc3cc(Cl)ccc3OC2)cc1  > 100 µM (inactive)
8  O=C(Nc1cc(Cl)ccc1Cl)C(=O)C(c1cnc2ccccc2n1)[N+](=O)[O-] (centres undefined)  > 100 µM (inactive)
9  O=C1CSC(c2cccc([N+](=O)[O-])c2)N1c1ccc(-n2c(-c3ccccc3)nc3ccccc3c2=O)cc1 (centres undefined)  > 100 µM (inactive)

----------
- Test system: EKVX
- protocol.description: NCI tumour cell line growth inhibition, 48 h
Activity calls are given as the source filed them. Rule as the data show it: active = GI50 up to about 1.1 µM and inactive = higher.
# GI50 annotations

compound	tested.system	GI50
COC(=O)[C@@]12C3=NO[C@]1(C(=O)OC)C(O[Si](C)(C)C(C)(C)C)[C@H]1OC(C)(C)O[C@H]1[C@@H]2C(OCc1ccccc1)CC3 (stereo not given in full)	EKVX	89.1 µM (inactive)
COC1(OC)C2(Cl)C3=CCCC=C3C1(Cl)C(Cl)=C2Cl	EKVX	16.1 µM (inactive)
N#Cc1c(N)n(-c2nc3ccccc3s2)c(=O)c2cc([N+](=O)[O-])ccc12	EKVX	23.3 µM (inactive)
Nc1ccccc1.O=P(O)(OP(=O)(O)c1ccccc1)c1ccccc1	EKVX	> 100 µM (inactive)
CC(=O)OCCN1c2ccccc2Sc2cnccc21	EKVX	8.55 µM (inactive)
Cc1cc(OCc2nnc3n2N=C(c2cc(F)c(Cl)cc2Cl)/C(=C/c2ccc(Cl)cc2)S3)ccc1Cl	EKVX	39.4 µM (inactive)
CCOC(=O)c1cc(C2=CCNC2=O)c(-c2cc(C)no2)[nH]1	EKVX	59.4 µM (inactive)
Cn1c(=O)c2nc(Nc3ccccc3)[nH]c2n(C)c1=O	EKVX	> 10 µM (inactive)
O=C1OC(c2ccccc2)=N/C1=C\c1c(O)cc(O)cc1O	EKVX	> 100 µM (inactive)
O=C1c2ccccc2-c2oc(=O)c3ccccc3c21	EKVX	24.8 µM (inactive)

----------
- Test system: Malme-3M
- protocol.description: NCI tumour cell line growth inhibition, 48 h
The source made the active and inactive calls. Cut-off read from the data, not from the text of the source: active = GI50 up to about 1.1 µM and inactive = higher.
Property: GI50; scope: individual molecules
readout.type: GI50

> print(dat)
                                   molecule               result
1  O=C1c2ccccc2N2OC3C4CCC(C4)C3C12c1ccccc1 (stereo unspecified)  > 100 µM (inactive)
2  Cc1ccc(S(=O)(=O)NCCN(CCNS(=O)(=O)c2ccc(C)cc2)S(=O)(=O)c2ccc(C)cc2)cc1   15.4 µM (inactive)
3  O=C1C(Cl)=CC2(C=C1Cl)CCNC1=C2C(=O)c2nc[nH]c2C1=O   24.3 µM (inactive)
4  C=C1C(=O)OC2C3C(=C)[C@@H](OC(C)=O)CC3C(C)=CC(OC(=O)C(C)(OC(C)=O)C(C)OC(C)=O)[C@@H]12 (stereo partly specified)   13.6 µM (inactive)
5         CC1=NN(c2nc(N)nc(CBr)n2)C(C)(C)C1   2.45 µM (inactive)
6                          CSc1nnnc2ccccc12  > 100 µM (inactive)

----------
- System: 786-0
- protocol.description: NCI tumour cell line growth inhibition, 48 h
Active and inactive are the calls of the source. Cut-off read from the data, not from the text of the source: active = GI50 up to about 1.1 µM and inactive = higher.
# GI50 annotations
readout.type: GI50

> print(dat)
                                        smi               result
1    O=C(O)c1ccc(C(O)(c2ccccc2)c2ccccc2)cc1  > 100 µM (inactive)
2  CN(C)c1nc2oc(-c3ccccc3)c(-c3ccccc3)c2c2nncn12  > 100 µM (inactive)
3                            OCCCNCc1ccccn1  > 100 µM (inactive)
